# Test system: UO-31 renal
# Procedure summary: NCI tumour cell line growth inhibition, 48 h; in the data active means GI50 below about 0.43 µM; inactive means the rest
Field 'call' accepts active, inactive

Sample answers from the record:
GET /call?item= "O=C1c2ccccc2-c2c1c1ccc([N+](=O)[O-])cc1c(=O)n2CCN1CCOCC1" returns the recorded outcome of this test. inactive

GET /call?item= "CCSc1nc(N)c(C#N)c(-c2ccc(OC)c(OC)c2)c1C#N" returns the recorded outcome of this test. inactive

GET /call?item= "COc1ccc(-c2cncn2-c2ccc(-c3nc4cc(OC)c(OC)c(OC)c4s3)cc2)cc1N" returns the recorded outcome of this test. inactive

---
GET /call?item= CCN(CC)CCC(CNc1c(C)cnc2cc(Cl)ccc12)c1ccc(Cl)c(Cl)c1 (centres undefined) returns the recorded outcome of this test. inactive

GET /call?item= "COc1ccc(/C=C2/C(=O)N(/C=C3\C(=O)Oc4ccccc4C3=O)C(=NC(C)=O)N2C)cc1OC" returns the recorded outcome of this test. inactive

GET /call?item= "COc1ccc(OC)c(-c2nc3sc(C)cn3c2/C=C2\C(=O)N(C)c3ccccc32)c1" returns the recorded outcome of this test. inactive

GET /call?item= "Cc1ccc(Nn2c(SCC(=O)Nc3nc(-c4ccccc4)cs3)nc(C)c2C)cc1" returns the recorded outcome of this test. inactive

GET /call?item= "C=C(C)[C@@H]1CC[C@]2(COC(=O)c3ccccc3C(=O)O)CC[C@]3(C)[C@H](CC[C@@H]4[C@@]5(C)CC[C@H](OC(=O)c6ccccc6C(=O)O)C(C)(C)[C@@H]5CC[C@]43C)[C@@H]12" returns the recorded outcome of this test. inactive

GET /call?item= "O=C1Nc2cc(-c3ccc(O)cc3)ccc2/C1=C/c1ccc[nH]1" returns the recorded outcome of this test. active

GET /call?item= "NCCNc1nc2ccc(F)cc2c2c(=O)c3cc(F)ccc3sc12" returns the recorded outcome of this test. inactive

GET /call?item= "COc1ccc(-n2nc(C(=O)c3ccccc3)c3nn4c(=O)cc(-c5ccccc5)nc4nc32)cc1" returns the recorded outcome of this test. inactive

GET /call?item= "O=C1c2ccccc2-c2c1c1ccc3ccccc3c1n2-c1ccccc1" returns the recorded outcome of this test. inactive

GET /call?item= NC1=C(/C(N)=N/O)C(c2ccccc2)c2ccc3ccccc3c2O1 (centres undefined) returns the recorded outcome of this test. active

GET /call?item= "NC(N)=N/N=C/c1c(-c2cccs2)nc2n1CCS2" returns the recorded outcome of this test. inactive

---

# Test system: NCI-H23 lung
# Procedure summary: NCI tumour cell line growth inhibition, 48 h
Measurement type: TGI

Some solved cases for reference:
Which TGI value is on record for "CN(C)CCSC(=Nc1ccccc1)n1cccc1" ? > 100 µM

Which TGI value is on record for Cc1ccc(C2SCc3nc4ccccc4n32)cc1 (stereo not given) ? 24.3 µM

Which TGI value is on record for Cc1ccc([N+](=O)[O-])cc1S(=O)(=O)Nc1ccc(C2=NN(C(=O)c3ccccc3)C(c3ccccc3O)C2)cc1 (stereo not given) ? 35.5 µM

Which TGI value is on record for "CCOC(=O)/C=C/C1=C(Br)[C@@]2(C)CC[C@@H]3c4ccc(O)cc4CC[C@H]3[C@@H]2C1" ? 26.6 µM

---
Which TGI value is on record for CC(C(=O)c1ccc(O)cc1)C1(O)C(=O)Nc2c(Cl)cc(Cl)cc21 (stereo not given) ? > 100 µM

---

Each item that follows carries a reported TGI.
# System: NCI-H226 lung
# Procedure summary: NCI tumour cell line growth inhibition, 48 h

Some solved cases for reference:
Which TGI value is on record for "CCOC(=O)/C(=C/c1ccccc1)N(CC)CC" ? > 100 µM

Which TGI value is on record for "Nc1nc(N)c2cc(S(=O)(=O)c3ccccc3)ccc2n1" ? > 100 µM

Which TGI value is on record for "Cc1ccc(S(=O)(=O)Nc2cc(=O)[nH]c3c2CCC3)cc1" ? > 100 µM

---
Which TGI value is on record for CC(NC(=O)c1ccc(OP(=O)(OCc2ccc([N+](=O)[O-])o2)N(C)CCCCCl)cc1)c1ccc(OCC2CCCCC2)c(C(N)=O)c1 (configuration not stated) ? 26.2 µM

Which TGI value is on record for COC(=O)[C@H]1C2CC[C@@H]3C45C[C@@H](c6ccoc6)O[C@@H]4O[C@@H](O2)C31CCC5C (some centres not stated) ? > 100 µM

Which TGI value is on record for "O=C(NN1CCCCC1)c1cc2cc(CCl)ccc2oc1=O" ? 45.3 µM

Which TGI value is on record for "COc1cc2ccnc(-c3n[nH]c4cc(OC)c(OC)cc34)c2cc1OC" ? > 100 µM

Which TGI value is on record for "COc1cc2c3c(n(CCCN=[N+]=[N-])c(=O)c2cc1OC)-c1ccc(NC(C)=O)cc1C3=O" ? > 50 µM

Which TGI value is on record for "CCOC(=O)c1cccc(N=Nc2ncc(/C=C/C(=O)OC)[nH]2)c1" ? > 100 µM

Which TGI value is on record for "COc1ccc2c3c([nH]c2c1)[C@H](C=C(C)C)N1C(=O)[C@@H]2CCCN2C(=O)[C@@H]1C3" ? > 100 µM

Which TGI value is on record for "CCOC(=O)CCCOc1cc(-c2ccccc2F)nc2cc3c(cc12)OCO3" ? > 100 µM

Which TGI value is on record for OC1CCSc2ccccc21 (configuration not stated) ? > 100 µM

Which TGI value is on record for NC1=C(/C(N)=N/O)C(c2ccccc2)c2ccc3ccccc3c2O1 (configuration not stated) ? 77.1 µM

Which TGI value is on record for "CC(C)(C)COS(=O)OCC(C)(C)C" ? > 100 µM

---

# Test system: HCT-15 colon
# Procedure summary: NCI tumour cell line growth inhibition, 48 h
Each item that follows carries a reported TGI.

Some solved cases for reference:
# get_value(readout= TGI, system= HCT-15 colon) for O=C1NC(=O)C23C(=O)NC(=O)C12C1C=CC3CC1 (stereo not given) > 10 µM

# get_value(readout= TGI, system= HCT-15 colon) for "CCOC(=O)/C=C(/C(=O)OCC)n1cc(C)c(=O)[nH]c1=O" 4.92 µM

# get_value(readout= TGI, system= HCT-15 colon) for "Oc1cc(F)cc2cccnc12" > 100 µM

# get_value(readout= TGI, system= HCT-15 colon) for "COc1ccc(/C=C\c2cc(OC)c(OC)c(OC)c2)cc1N/C=C\C(=O)c1c[nH]c2ccccc12" > 100 µM

# get_value(readout= TGI, system= HCT-15 colon) for COc1ccc(C2S/C(=C\c3ccc([N+](=O)[O-])cc3)C(=O)N2NC(=O)Cc2ccccc2)cc1 (stereo not given) > 100 µM

---
# get_value(readout= TGI, system= HCT-15 colon) for "CNc1ccc(Cl)cc1C(=O)N1CCC[C@H]1CO" > 100 µM

# get_value(readout= TGI, system= HCT-15 colon) for O=C1/C(=C\c2cccc(Oc3ccccc3)c2)SC(c2ccccc2)N1Cc1ccccc1 (stereo not given) > 100 µM

# get_value(readout= TGI, system= HCT-15 colon) for "c1cc2nnc1SCCSCCCSCCS2" > 100 µM

# get_value(readout= TGI, system= HCT-15 colon) for O=C(c1nc2ccc(Cl)cc2[nH]c1=O)C(O)c1cccc([N+](=O)[O-])c1 (stereo not given) > 100 µM

# get_value(readout= TGI, system= HCT-15 colon) for "CN1CCN(c2ccc3nc(-c4ccc5nc(CCCc6ccc(N(CCCl)CCCl)cc6)[nH]c5c4)[nH]c3c2)CC1" > 100 µM

---

# System: ACHN renal
# Procedure summary: NCI tumour cell line growth inhibition, 48 h
Measurement type: TGI (µM)
Report as a plain number; the unit µM is understood.

Some solved cases for reference:
Which TGI value is on record for "COc1ccc2cn3c4ccc(O)cc4[nH]c(=O)c3c2c1" ? 15.9

Which TGI value is on record for "CCN(CC)CCOc1ccccc1-n1c(C)ccc1-c1ccccc1" ? 30.3

With those in mind, consider the next compound.
Which TGI value is on record for "Cc1cc(=O)[nH]c(Sc2ccc([N+](=O)[O-])cc2[N+](=O)[O-])n1" ? 38.4

---

Each item that follows carries a reported TGI.
# System: IGROV1 ovarian
# Procedure summary: NCI tumour cell line growth inhibition, 48 h

Some solved cases for reference:
Which TGI value is on record for "CCOC(=O)COc1cc(-c2ccccc2)nc2cc(F)ccc12" ? > 100 µM

Which TGI value is on record for "COc1ccc2c3c([nH]c2c1)[C@H](C=C(C)C)N1C(=O)[C@@H]2CCCN2C(=O)[C@@H]1C3" ? > 100 µM

Which TGI value is on record for CC/C(=N/O)C(C)C(=O)CCC(=O)Nc1ccc(Cl)cc1 (configuration not stated) ? > 100 µM

Which TGI value is on record for "COc1cc2ccnc(-c3n[nH]c4cc(OC)c(OC)cc34)c2cc1OC" ? > 100 µM

Which TGI value is on record for "C=C(C)[C@@H]1CC[C@]2(COC(=O)c3ccccc3C(=O)O)CC[C@]3(C)[C@H](CC[C@@H]4[C@@]5(C)CC[C@H](OC(=O)c6ccccc6C(=O)O)C(C)(C)[C@@H]5CC[C@]43C)[C@@H]12" ? > 100 µM

Which TGI value is on record for "NC(N)=N/N=C/c1c(-c2cccs2)nc2n1CCS2" ? > 100 µM

---
Which TGI value is on record for "N#CC(C#N)[C@@H]1CCC=C(Sc2ccccc2)[C@H]1Sc1ccccc1" ? 13.6 µM

Which TGI value is on record for "CN1CCN(c2ccc(NC(=O)c3cncnc3Nc3ccc4c(ccn4Cc4cccc(F)c4)c3)cc2)CC1" ? 6.92 µM

Which TGI value is on record for OC1CCSc2ccccc21 (configuration not stated) ? > 100 µM

Which TGI value is on record for "COC(=O)C[C@@H]1CC=CC(=O)/C1=C(O)/C=C/c1ccccc1" ? 0.52 µM

Which TGI value is on record for "C=CC(=O)OCCCS(=O)(=O)[O-].C=CC(=O)OCCCS(=O)(=O)[O-].NC1CCCCC1N.[Pt+4]" ? > 25 µM

Which TGI value is on record for "CCOC(=O)c1cccc(N=Nc2ncc(/C=C/C(=O)OC)[nH]2)c1" ? 83.8 µM

Which TGI value is on record for "COC(=O)c1ccc(N/C=C(/C#N)c2ccsc2)cc1" ? 65.2 µM

Which TGI value is on record for "FC(F)(F)c1nc2c(ccc3[nH]c4c(-c5ccccc5)nccc4c32)[nH]1" ? > 100 µM

Which TGI value is on record for "CCOC(=O)/C(=C/c1ccccc1)N(CC)CC" ? > 100 µM

Which TGI value is on record for "O=C(/C=C/c1ccco1)N1CCN(Cc2ccccc2)CC1" ? > 100 µM

Data provenance: PubChem BioAssay (NCI)
